target-of-assay: CYP2C19 (Homo sapiens, UniProt P33261)
Sequence (P33261 whole entry): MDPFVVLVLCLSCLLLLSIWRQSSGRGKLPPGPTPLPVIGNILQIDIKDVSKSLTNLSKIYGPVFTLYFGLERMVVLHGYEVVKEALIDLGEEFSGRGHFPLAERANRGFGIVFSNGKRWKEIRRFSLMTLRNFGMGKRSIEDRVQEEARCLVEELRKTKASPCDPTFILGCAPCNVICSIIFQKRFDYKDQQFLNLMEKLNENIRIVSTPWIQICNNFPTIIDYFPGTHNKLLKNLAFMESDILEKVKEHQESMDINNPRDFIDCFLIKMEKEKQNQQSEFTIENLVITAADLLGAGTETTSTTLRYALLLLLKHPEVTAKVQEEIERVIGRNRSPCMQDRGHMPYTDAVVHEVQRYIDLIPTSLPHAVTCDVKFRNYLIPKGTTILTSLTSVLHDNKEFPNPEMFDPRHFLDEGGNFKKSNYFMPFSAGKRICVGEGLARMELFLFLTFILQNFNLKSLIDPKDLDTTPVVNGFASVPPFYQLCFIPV
protocol-text: Inhibition of recombinant human CYP2C19 assessed as remaining enzyme activity at 10 uM preincubated for 5 mins followed by NADPH addition measured after 20 mins by fluorescence assay relative to control
Format: ADME
particulars: read-out: Activity
attribute-measured: activity at 20 min, 10 µM (%)
// units = %; emit number, no label

Query: // lookup activity at 20 min, 10 µM for C[C@@H](Oc1cncc(-c2cnc(N)nc2)c1)c1c(Cl)ccc(F)c1Cl
Response: 36.4

Query: Record request: activity at 20 min, 10 µM value, item O=C(NCc1c(F)cccc1F)c1sccc1OCc1ccc(Cl)cc1Cl
Response: 16.4

Query: Look up activity at 20 min, 10 µM for this compound: Nc1ccc(-c2cncc(OCc3ccc(Cl)cc3Cl)c2)cn1
Response: 53.5

Query: Which activity at 20 min, 10 µM reading was recorded for the compound C[C@@H](Oc1cncc(-c2ccc(C#N)s2)c1)c1c(Cl)ccc(F)c1Cl ?
Response: 54.2

Query: Which activity at 20 min, 10 µM is reported for this compound? N#Cc1ccc(-c2cncc(OCc3ccc(Cl)cc3Cl)c2)s1
Response: 89.9
